Task for the reader: assign each of the following compounds its reported % increase in LDL Uptake.
# assay_system: PCSK9 (Homo sapiens, UniProt Q8NBP7)
# Sequence (Q8NBP7 153-692): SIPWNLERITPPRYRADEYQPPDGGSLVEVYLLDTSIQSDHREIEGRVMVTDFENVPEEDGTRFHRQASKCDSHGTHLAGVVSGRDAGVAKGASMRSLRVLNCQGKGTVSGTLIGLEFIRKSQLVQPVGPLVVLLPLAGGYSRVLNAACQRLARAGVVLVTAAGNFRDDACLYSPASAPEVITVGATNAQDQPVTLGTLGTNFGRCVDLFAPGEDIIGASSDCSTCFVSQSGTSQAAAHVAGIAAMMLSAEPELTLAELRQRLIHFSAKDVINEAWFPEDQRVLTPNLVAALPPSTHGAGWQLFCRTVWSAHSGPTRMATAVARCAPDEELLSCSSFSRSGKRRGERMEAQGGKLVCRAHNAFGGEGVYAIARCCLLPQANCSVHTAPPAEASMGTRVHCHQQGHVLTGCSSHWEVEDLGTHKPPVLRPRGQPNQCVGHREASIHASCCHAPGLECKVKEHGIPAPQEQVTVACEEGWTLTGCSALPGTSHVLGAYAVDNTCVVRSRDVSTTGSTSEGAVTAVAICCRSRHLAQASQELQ
# test_details: BODIPY-LDL uptake assay in HepG2 cells
# Assay type: cell-based
# recorded_conditions: 10 μM test compound, 5 μg/ml PCSK9, BODIPY-LDL
Answers are plain numbers, in %.

# example entries with known answers
>>> observed("O=C(c1ccc(C2(O)CCNC2)cc1)N1CCC(c2ccc(C(F)(F)F)cc2)CC1 (stereo not shown)")
0
>>> observed("Cc1ccc(C2CCN(C(=O)c3ccc(C4(O)COC4)cc3)CC2)cc1Cl")
17
>>> observed("CC(C)OC1(c2ccc(C(=O)N3CCC(c4ccc(C(F)(F)F)cc4)CC3)cc2)COC1")
56

Input: What does the data say about its % increase in LDL Uptake? Entry: COC1(c2cccc(C(=O)N3CC4=C(C3)CN(c3ccc(C(F)(F)F)cc3)C4)c2)COC1
Output: 0
